TGT: T1, 重组huPCSK9-his (人PCSK9, C端His-tag) (human, UniProt Q8NBP7 54-692)
T1 construct: Expressed in HEK293 cells; not shown: C-terminal His-tag
PROCEDURE TEXT: solid-phase panning of scFv phage library on huPCSK9-his

BINDER	binding result
S2F5 (scFv, also called 克隆S2F5) scFv: QVQLVQSGAEVKKPGSSVKVSCKASGGTFTGYSIHWVRQAPGQGLEWMGWINPISGSANYAQKFQGRVTITADKSTSTAYMELSSLRSEDTAVYYCARTQNNTGYRGTDYWGQGTLVTVSSGGGGSGGGGSGGGSDIQMTQSPSSLSASVGDRVTITCRASQSVSSYLNWYQQKPGKAPKLLIYGASTRPSGVPSRFSGSGSGTDFTLTISSLQPEDFATYYCQQHADTPTTFGQGTKVEIK	binds
